assay: Additive decomposition of peak excitation and emission wavelengths (model coefficients of A and B groups); settings: influence of A group on peak excitation wavelength, A group 1 as baseline
Classify on αi^ex using low (below -20 nm), middle (-20 nm to below 10 nm), high (10 nm or more)

Ask | Would you mind sorting O=Cc1ccc(OCc2ccccc2)c(OCc2ccccc2)c1 into the appropriate category?
Reply | low

###

system: mitochondria; assay: QSLR factorial logistic regression of mitochondrial localization (affinity coefficients, cross-validated prediction); parameters: species or system human; settings: mitochondrial affinity; ±5 for groups always or never mitochondrial
Measured estimated A group affinity coefficient ai, listed per entry.
Please reply with the value in numeric form only.

Consider the following illustrative entries.
Ask | Using the record for COc1cc(OC)c(OC)cc1C=O [A group 38] , state its measured estimated A group affinity coefficient ai.
Reply | −1.3

Ask | In one line, give reported estimated A group affinity coefficient ai of the entry O=Cc1ccc(OCc2ccccc2)c(OCc2ccccc2)c1 [A group 12] .
Reply | −3.3

Ask | Determine from records and report estimated A group affinity coefficient ai for COc1ccc(C=O)c2ccccc12 [A group 14]
Reply | −1.2

Ask | Find the measured estimated A group affinity coefficient ai of O=Cc1ccc(O)cc1 [A group 16] and report it.
Reply | −1.9

Ask | Please report estimated A group affinity coefficient ai for the following compound: O=Cc1ccc([N+](=O)[O-])cc1 [A group 22]
Reply | 5.0

New cases:
Ask | Supply estimated A group affinity coefficient ai value. Item: COc1ccc(C=O)cc1O [A group 15]
Reply | −0.6

###

test system: HeLa cells; assay: Kinetic imaging of NBD-triazine probe uptake and sequestration, fitted to nested two-compartment transport model; format: cell-based; settings: median over optimal solutions within 5% of the best fit
Entries and their measured median Pap(cyto) (apparent partition coefficient between extracellular medium and cytosol) follow.
No unit in the answer, please; the number alone is enough.

Ask | Entry COc1cccc(CNc2nc(NCCCCCCNc3ccc([N+](=O)[O-])c4nonc34)nc(NCCc3ccccc3)n2)c1 [Compound B10] needs its median Pap(cyto) (apparent partition coefficient between extracellular medium and cytosol) filled in; supply it.
Reply | 8.21

Ask | Tell me median Pap(cyto) (apparent partition coefficient between extracellular medium and cytosol) reported for COc1cccc(CNc2nc(NCCCCCCNc3ccc([N+](=O)[O-])c4nonc34)nc(NCCC(C)C)n2)c1 [Compound B8]
Reply | 9.79

Ask | Name the recorded median Pap(cyto) (apparent partition coefficient between extracellular medium and cytosol) of the compound listed here: CCCCCCCCNc1nc(NCCCCCCNc2ccc([N+](=O)[O-])c3nonc23)nc(NCc2cccc(OC)c2OC)n1 [Compound H3]
Reply | 7.51

Ask | Provide median Pap(cyto) (apparent partition coefficient between extracellular medium and cytosol) value for the following compound: CCCCNc1nc(NCCCCCCNc2ccc([N+](=O)[O-])c3nonc23)nc(NCc2ccc(C)cc2)n1 [Compound G1]
Reply | 12.30

Ask | // Input: Cc1ccc(CNc2nc(NCCCCCCNc3ccc([N+](=O)[O-])c4nonc34)nc(NC3CCCCC3C)n2)cc1 (centres unmarked) [Compound G5] . Output its median Pap(cyto) (apparent partition coefficient between extracellular medium and cytosol) only.
Reply | 57.45

Ask | Find the measured median Pap(cyto) (apparent partition coefficient between extracellular medium and cytosol) of O=[N+]([O-])c1ccc(NCCCCCCNc2nc(NCCc3ccccn3)nc(NCc3ccccc3)n2)c2nonc12 [Compound A9] and report it.
Reply | 11.54

Ask | Provide median Pap(cyto) (apparent partition coefficient between extracellular medium and cytosol) value for the following compound: COc1ccc(CCNc2nc(NCCCCCCNc3ccc([N+](=O)[O-])c4nonc34)nc(NC3CCCCC3)n2)cc1 [Compound D7]
Reply | 8.37

Ask | Consider the compound CCCCCCCCNc1nc(NCCCCCCNc2ccc([N+](=O)[O-])c3nonc23)nc(NCc2ccc(OC)cc2)n1 [Compound C3] . State its measured median Pap(cyto) (apparent partition coefficient between extracellular medium and cytosol).
Reply | 5.74

Ask | State its median Pap(cyto) (apparent partition coefficient between extracellular medium and cytosol): CC1CCC(Nc2nc(NCCCCCCNc3ccc([N+](=O)[O-])c4nonc34)nc(NCCC(c3ccccc3)c3ccccc3)n2)CC1 (centres unmarked) [Compound F4]
Reply | 1.89

###

We begin with a simple list: items and their reported βj^ex.
test: Additive decomposition of peak excitation and emission wavelengths (model coefficients of A and B groups); conditions: influence of B group on peak excitation wavelength, B group 1 as baseline

Ask | Quickly give me recorded βj^ex for COc1ccc2c(ccc(C)[n+]2C)c1.[I-]
Reply | −0.1 nm

Ask | Give recorded βj^ex. CCc1ccc(C)[n+](C)c1.[I-]
Reply | −1.6 nm

Now turn to the next molecule.
Ask | Specify reported βj^ex for the molecule shown: Cc1cccc[n+]1C.[I-]
Reply | −12.7 nm

###

Test: Additive decomposition of peak excitation and emission wavelengths (model coefficients of A and B groups)
Conditions: influence of A group on peak excitation wavelength, A group 1 as baseline
Source text: The chemical structure of the styryl library is illustrated in FIG. 3. […] The additive model λij=ai+βj+εij was fit to the data using least squares yielding parameters αi^ex, αi^em, βj^ex, and βj^em that quantify the influence of each A and B group on the spectrum of the styryl product. […] Based on this analysis, the contribution of the A and B functional groups to the fluorescence of the styryl product is quantified using the fitted coefficients αi^ex, βj^ex, βi^em, and βj^em. […]
Parameter αi^ex: see the listing below.
Give the value, in units of nm, as a plain number.

Ask | Item O=Cc1ccc2c(c1)OCO2 [A group 39] : provide αi^ex
Reply | −28.3

Ask | Give the measured αi^ex for O=Cc1ccc(O)cc1 [A group 16]
Reply | −36.3

Ask | Hello, please tell me recorded αi^ex for this one: O=Cc1ccc([N+](=O)[O-])cc1 [A group 22]
Reply | −52.8

Ask | Entry O=Cc1ccc2ccc3cccc4ccc1c2c34 [A group 41] needs its αi^ex filled in; supply it.
Reply | 26.1

###

Catalogue of αi^em readings, one per entry.
assay: Additive decomposition of peak excitation and emission wavelengths (model coefficients of A and B groups); settings: influence of A group on peak emission wavelength, A group 1 as baseline
Provide the reading as a plain figure in nm.

Worked cases, answers included:
Ask | Identify measured αi^em associated with O=Cc1ccc(O)cc1 [A group 16]
Reply | −24.8

Ask | Give a short answer stating reported αi^em for O=Cc1ccc(F)cc1 [A group 30] .
Reply | 50.1

Ask | Consider the compound O=Cc1ccccc1Br [A group 3] and give its recorded αi^em.
Reply | 46.3

Ask | Give αi^em for O=CC=Cc1ccccc1 [A group 35]
Reply | −8.3

Ask | Please indicate αi^em recorded for O=Cc1ccc(Cl)cc1 [A group 6]
Reply | −9.5

Next:
Ask | Write down αi^em measured for item O=Cc1cccc(Br)c1 [A group 4]
Reply | 23.5

Ask | Specify measured αi^em for O=Cc1ccc(OCc2ccccc2)c(OCc2ccccc2)c1 [A group 12] .
Reply | −22.7

Ask | Hello, please tell me recorded αi^em for this one: O=Cc1ccc2c(c1)OCO2 [A group 39]
Reply | −25.3

Ask | Tell us which αi^em value is on record for CN(C)c1ccc(C=O)cc1 [A group 19]
Reply | 49.6

Ask | Look up and state reported αi^em for COc1ccc(C=O)cc1OC [A group 11]
Reply | −26.7

Ask | Please give the documented αi^em of COc1ccc(C=O)cc1 [A group 10]
Reply | −23.7

Ask | Respond only with αi^em recorded for COc1ccc2ccccc2c1C=O [A group 23]
Reply | −10.3

Ask | Determine from records and report αi^em for CN(C)c1ccc(C=CC=O)cc1 [A group 37]
Reply | 122.1

###

Some molecules, each annotated with its measured estimated A group affinity coefficient ai.
System: mitochondria
Assay: QSLR factorial logistic regression of mitochondrial localization (affinity coefficients, cross-validated prediction)
Design: species or system human
Details: mitochondrial affinity; ±5 for groups always or never mitochondrial
Text: The first column and first row contain the A group and B group labels. The second column and second row contain the estimated A group and B group affinity coefficients (ai and bj respectively). […] The subscript m indicates experimentally determined mitochondrial localization. The subscript o indicates experimentally determined non-mitochondrial localization. […]
No unit in the answer, please; the number alone is enough.

The cases that follow already have their estimated A group affinity coefficient ai on record.
Ask | Given O=Cc1c(F)c(F)c(F)c(F)c1F , respond with its estimated A group affinity coefficient ai.
Reply | 5.0

Ask | Fill in reported estimated A group affinity coefficient ai for this entry: Cc1ccccc1C=O
Reply | 5.0

Ask | Specify measured estimated A group affinity coefficient ai for O=Cc1ccc2c(c1)Cc1ccccc1-2 .
Reply | −5.0

Ask | Note estimated A group affinity coefficient ai for the molecule shown: O=Cc1ccc(F)cc1
Reply | 5.0

Ask | Report estimated A group affinity coefficient ai for COc1cc(C=O)cc(OC)c1OC
Reply | 5.0

Next:
Ask | Report measured estimated A group affinity coefficient ai; entry is O=Cc1ccccc1Br
Reply | 5.0

Ask | Report estimated A group affinity coefficient ai, nothing else, for this molecule: O=CCc1ccccc1
Reply | −0.2

Ask | Answer with the recorded estimated A group affinity coefficient ai of O=Cc1ccccc1F only.
Reply | 5.0

Ask | Report measured estimated A group affinity coefficient ai; entry is COc1ccc(C=O)cc1
Reply | 1.3
